Experiment: Plasma stability
Type: in vitro ADME
Conditions: rat, n = 3, read-out: t1/2 in blood plasma (converted)
quantity_measured: half-life at 10 μg/mL (h)

compound	quantity_measured	recorded_measurement
CN(C)C(=O)Oc1ccc(C(=O)N2CCC(Cc3ccccc3)CC2)c(OC(=O)N(C)C)c1 [Compound 5a]	half-life at 10 μg/mL	3.25

###

Target: eeAChE (electric eel AChE) (Electrophorus electricus)
Construct: purchased Sigma-Aldrich Co; host or cells: electric eel (natural source)
Sequence (O42275 24-633): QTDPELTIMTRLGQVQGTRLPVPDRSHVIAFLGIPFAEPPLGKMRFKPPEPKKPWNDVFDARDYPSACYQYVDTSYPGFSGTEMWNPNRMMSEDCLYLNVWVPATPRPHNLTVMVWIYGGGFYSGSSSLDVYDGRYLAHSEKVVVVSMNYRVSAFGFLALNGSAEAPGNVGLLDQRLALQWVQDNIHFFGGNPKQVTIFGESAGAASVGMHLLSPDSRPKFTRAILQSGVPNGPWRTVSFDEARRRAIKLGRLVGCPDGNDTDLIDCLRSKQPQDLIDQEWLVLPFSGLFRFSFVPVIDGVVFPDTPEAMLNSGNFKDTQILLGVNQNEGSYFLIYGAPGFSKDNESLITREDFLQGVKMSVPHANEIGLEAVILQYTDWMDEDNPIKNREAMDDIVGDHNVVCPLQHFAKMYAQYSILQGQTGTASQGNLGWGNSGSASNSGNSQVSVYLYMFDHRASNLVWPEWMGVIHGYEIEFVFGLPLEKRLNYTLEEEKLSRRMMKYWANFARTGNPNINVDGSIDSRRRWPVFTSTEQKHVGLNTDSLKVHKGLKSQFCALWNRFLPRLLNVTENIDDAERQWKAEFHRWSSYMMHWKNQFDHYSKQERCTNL
Assay: biochemical
Conditions: mean ± SD; read-out: IC50 ± SD eeAChE
quantity_measured: IC50 (µM)

structure_notation	experimental_system	unit_annotation	recorded_measurement
O=C(Oc1ccc(C(=O)N2CCC(Cc3ccccc3)CC2)c(OC(=O)N2CCCC2)c1)N1CCCC1	eeAChE (electric eel AChE) (Electrophorus electricus)	µM	22.3
CC(C)N(C(=O)Oc1ccc(C(=O)N2CCC(Cc3ccccc3)CC2)c(OC(=O)N(C(C)C)C(C)C)c1)C(C)C	eeAChE (electric eel AChE) (Electrophorus electricus)	µM	7.1
CC(C)N(C(=O)Oc1ccc(OC(=O)N(C(C)C)C(C)C)c(C(=O)N2CCC(Cc3ccccc3)CC2)c1)C(C)C	eeAChE (electric eel AChE) (Electrophorus electricus)	µM	8.2
O=C(Oc1ccc(C(=O)N2CCC(Cc3ccccc3)CC2)c(OC(=O)N2CCOCC2)c1)N1CCOCC1	eeAChE (electric eel AChE) (Electrophorus electricus)	µM	18.3
